system: RAW264.7; assay: Inhibition of iNOS mRNA expression in LPS-stimulated mouse RAW264.7 cells at 100 ug/ml after 24 hrs by real time fluorescent quantitative real time PCR relative to negative control; format: functional
Listing: fold change (FC) of selected compounds
A bare number is all that is needed in reply.

Req: Give its fold change (FC) value. Item: CC1(C)C[C@H]2C3=CC[C@@H]4[C@@]5(C)CC[C@H](O)[C@](C)(CO)[C@@H]5CC[C@@]4(C)[C@]3(C)CC[C@@]2(C)[C@H](O)[C@@H]1O [SOYASAPOGENOL A]
Resp: 15.1

Req: Give its fold change (FC) value. Item: C[C@@H]1O[C@@H](O[C@H]2[C@H](O[C@H]3[C@H](O[C@H]4CC[C@@]5(C)[C@@H](CC[C@]6(C)[C@@H]5CC=C5[C@@H]7CC(C)(C)C[C@@H](O)[C@]7(C)CC[C@]56C)[C@@]4(C)CO)O[C@H](C(=O)O)[C@@H](O)[C@@H]3O)O[C@H](CO)[C@H](O)[C@@H]2O)[C@H](O)[C@H](O)[C@H]1O [SOYASAPONIN I]
Resp: 6.8

Req: Give its fold change (FC) value. Item: CC1(C)C[C@H]2C3=CC[C@@H]4[C@@]5(C)CC[C@H](O[C@@H]6O[C@H](C(=O)O)[C@@H](O)[C@H](O)[C@H]6O[C@@H]6O[C@H](CO)[C@H](O)[C@H](O)[C@H]6O[C@@H]6O[C@H](CO)[C@@H](O)[C@H](O)[C@H]6O)[C@](C)(CO)[C@@H]5CC[C@@]4(C)[C@]3(C)CC[C@@]2(C)[C@H](O[C@@H]2OC[C@H](O)[C@@H](O)[C@H]2O[C@@H]2O[C@H](CO)[C@@H](O)[C@@H](O)[C@H]2O)[C@@H]1O [SOYASAPONIN A1]
Resp: 7.5

Req: Give its fold change (FC) value. Item: CC1(C)C[C@H]2C3=CC[C@@H]4[C@@]5(C)CC[C@H](O[C@@H]6O[C@H](C(=O)O)[C@@H](O)[C@H](O)[C@H]6O[C@@H]6O[C@H](CO)[C@@H](O)[C@@H](O)[C@H]6O)[C@](C)(CO)[C@@H]5CC[C@@]4(C)[C@]3(C)CC[C@@]2(C)[C@H](O[C@@H]2OC[C@H](O)[C@@H](O)[C@H]2O[C@@H]2O[C@H](CO)[C@@H](O)[C@@H](O)[C@H]2O)[C@@H]1O [SOYASAPONIN A2]
Resp: 5.7

Req: Give its fold change (FC) value. Item: CC1(C)C[C@@H](O)[C@]2(C)CC[C@]3(C)C(=CC[C@@H]4[C@@]5(C)CC[C@H](O)[C@](C)(CO)[C@@H]5CC[C@]43C)[C@@H]2C1 [SOYASAPOGENOL B]
Resp: 14.7

###

target: Nitric oxide synthase, inducible (Mus musculus) (UniProt P29477); assay: Inhibition of iNOS activity in LPS-stimulated mouse RAW264.7 cells assessed as conversion of L-[…] arginine to L-[3H] citruline per mg of protein at 50 ug/ml after 24 hrs; type: cell-based
Sequence (P29477 whole entry): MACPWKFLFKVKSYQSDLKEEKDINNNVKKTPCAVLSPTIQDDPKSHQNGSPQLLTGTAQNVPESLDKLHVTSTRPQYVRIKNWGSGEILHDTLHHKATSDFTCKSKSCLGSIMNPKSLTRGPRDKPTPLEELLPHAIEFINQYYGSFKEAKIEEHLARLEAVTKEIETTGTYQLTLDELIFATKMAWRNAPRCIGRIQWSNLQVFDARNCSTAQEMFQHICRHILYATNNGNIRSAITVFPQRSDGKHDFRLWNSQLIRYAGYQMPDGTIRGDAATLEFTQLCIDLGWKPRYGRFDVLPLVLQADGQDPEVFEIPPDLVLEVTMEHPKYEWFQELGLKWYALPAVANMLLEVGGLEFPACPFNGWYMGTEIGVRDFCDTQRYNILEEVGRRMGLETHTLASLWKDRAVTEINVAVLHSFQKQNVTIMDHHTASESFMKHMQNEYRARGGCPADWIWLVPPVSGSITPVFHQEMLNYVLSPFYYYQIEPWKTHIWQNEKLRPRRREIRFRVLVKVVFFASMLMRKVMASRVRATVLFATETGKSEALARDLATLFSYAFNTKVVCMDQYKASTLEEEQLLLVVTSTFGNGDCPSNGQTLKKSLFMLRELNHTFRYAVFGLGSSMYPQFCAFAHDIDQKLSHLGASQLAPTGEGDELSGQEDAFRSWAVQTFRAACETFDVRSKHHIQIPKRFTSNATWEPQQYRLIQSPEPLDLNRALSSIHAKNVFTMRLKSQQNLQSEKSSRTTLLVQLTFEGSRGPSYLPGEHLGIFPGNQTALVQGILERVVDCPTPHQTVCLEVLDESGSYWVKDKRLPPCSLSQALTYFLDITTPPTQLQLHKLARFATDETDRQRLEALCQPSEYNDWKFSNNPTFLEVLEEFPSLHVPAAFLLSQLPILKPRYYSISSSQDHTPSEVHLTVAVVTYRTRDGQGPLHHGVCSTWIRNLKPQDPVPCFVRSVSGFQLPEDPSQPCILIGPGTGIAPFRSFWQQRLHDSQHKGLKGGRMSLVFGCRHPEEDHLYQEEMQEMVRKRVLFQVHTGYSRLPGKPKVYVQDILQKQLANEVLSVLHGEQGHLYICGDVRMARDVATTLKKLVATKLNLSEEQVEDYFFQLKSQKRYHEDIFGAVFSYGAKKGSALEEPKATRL
Listing: Activity of selected compounds
Report as a plain number; the unit pmol/min is understood.

| Compound | Measured Target | Result Type | Endpoint Unit | Numeric Result |
| --- | --- | --- | --- | --- |
| CC1(C)C[C@H]2C3=CC[C@@H]4[C@@]5(C)CC[C@H](O[C@@H]6O[C@H](C(=O)O)[C@@H](O)[C@H](O)[C@H]6O[C@@H]6O[C@H](CO)[C@H](O)[C@H](O)[C@H]6O[C@@H]6O[C@H](CO)[C@@H](O)[C@H](O)[C@H]6O)[C@](C)(CO)[C@@H]5CC[C@@]4(C)[C@]3(C)CC[C@@]2(C)[C@H](O[C@@H]2OC[C@H](O)[C@@H](O)[C@H]2O[C@@H]2O[C@H](CO)[C@@H](O)[C@@H](O)[C@H]2O)[C@@H]1O [SOYASAPONIN A1] | Nitric oxide synthase, inducible (Mus musculus) (UniProt P29477) | Activity | pmol/min | 18.3 |

Moving on to another compound below.
Req: Query for Nitric oxide synthase, inducible (Mus musculus) (UniProt P29477): what Activity does the record show for C[C@@H]1O[C@@H](O[C@H]2[C@H](O[C@H]3[C@H](O[C@H]4CC[C@@]5(C)[C@@H](CC[C@]6(C)[C@@H]5CC=C5[C@@H]7CC(C)(C)C[C@@H](O)[C@]7(C)CC[C@]56C)[C@@]4(C)CO)O[C@H](C(=O)O)[C@@H](O)[C@@H]3O)O[C@H](CO)[C@H](O)[C@@H]2O)[C@H](O)[C@H](O)[C@H]1O [SOYASAPONIN I] ?
Resp: 16.6
